IC50 by entry:
# systemName: TGR (DTNB reducing activity) (Schistosoma mansoni, UniProt Q962Y6)
# Sequence (Q962Y6 1-598): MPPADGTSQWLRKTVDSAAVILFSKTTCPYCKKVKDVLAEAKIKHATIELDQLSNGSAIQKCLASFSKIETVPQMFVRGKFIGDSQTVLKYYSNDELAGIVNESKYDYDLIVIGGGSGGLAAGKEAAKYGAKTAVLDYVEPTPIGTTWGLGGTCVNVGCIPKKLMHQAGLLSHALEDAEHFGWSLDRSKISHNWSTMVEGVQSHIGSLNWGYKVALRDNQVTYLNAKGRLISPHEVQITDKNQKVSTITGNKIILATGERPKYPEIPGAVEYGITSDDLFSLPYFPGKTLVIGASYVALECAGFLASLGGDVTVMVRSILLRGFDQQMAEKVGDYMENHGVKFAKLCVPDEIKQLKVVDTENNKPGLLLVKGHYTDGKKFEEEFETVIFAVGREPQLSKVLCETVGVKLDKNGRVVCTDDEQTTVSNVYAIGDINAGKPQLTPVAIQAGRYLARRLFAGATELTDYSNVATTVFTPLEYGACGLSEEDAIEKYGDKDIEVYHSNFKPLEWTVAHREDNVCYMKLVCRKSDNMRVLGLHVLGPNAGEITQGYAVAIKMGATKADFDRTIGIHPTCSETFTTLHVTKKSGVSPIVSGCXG
# methodDescription: TGR inhibition confirmatory assay, DTNB reduction
# Format: biochemical
# particulars: read-out: IC50 (DTNB); DTNB as substrate

{"columns": ["molecule", "IC50 (nM)"],
 "data": [
  ["COc1ccc([N+](=O)[O-])c(S(=O)(=O)c2ccc(Cl)cc2)n1", 60],
  ["Oc1ccc(CNc2cccc(C(F)(F)F)c2)c2cccnc12", 90],
  ["COC(=O)CS(=O)(=O)c1nnc(C(Cc2ccccc2)NC(=O)OC(C)(C)C)o1 (centres unmarked)", 330],
  ["COc1ccc(C(Nc2cc(C)ccn2)c2ccc3ccc(C)nc3c2O)cc1 (centres unmarked)", 130],
  ["O=[N+]([O-])c1ccc2c(c1)S(=O)(=O)C=C2", 2010],
  ["CCOC(=O)C(C(=O)OCC)c1cc(Br)c2noc3c2c1C(=O)c1ccccc1-3", 140],
  ["O=c1c(Cl)c(-n2cc(CO)nn2)cnn1-c1ccccc1", 2840],
  ["CCN(c1ccccc1)S(=O)(=O)c1ccc(NC(=O)c2nc(S(C)(=O)=O)ncc2Cl)cc1", 210]
]}
